System: MCF-10A breast epithelial cells
Test: Cell viability assay (MTT)
Type: cell-based, human
Conditions: MCF10A, 48 h, 100.0 µM
We begin with a simple list: items and their reported cell viability.

[
  {
    "molecule": "COc1c(OC)c(-c2c[nH]c3ccccc23)c(OC)c(OC)c1-c1c[nH]c2ccccc12",
    "cell viability": "78.9 ± 5.7 % of control"
  },
  {
    "molecule": "COc1c(OC)c(-c2c[nH]c3ccc(O)cc23)c(OC)c(OC)c1-c1c[nH]c2ccccc12",
    "cell viability": "45.7 ± 6.6 % of control"
  },
  {
    "molecule": "Cc1c(C)c(O)c2c(c1C)C(C)(O)OC2=O (stereo not drawn) [Compound 3, sclerolide]",
    "cell viability": "47.5 ± 7.0 % of control"
  },
  {
    "molecule": "Cc1c(C)c(O)c2c(c1C)C(C)C(=O)OC2=O (stereo not drawn)",
    "cell viability": "73.5 ± 1.1 % of control"
  },
  {
    "molecule": "C=C(C)C1CCC23C(O)CCC(C)C2(C)CCC(C)C3C1c1c[nH]c2ccccc12 (stereo not drawn) [Compound 5, 10,23-dihydro-24,25-dehydroaflavinine]",
    "cell viability": "9.9 ± 0.2 % of control"
  },
  {
    "molecule": "COC1=C(c2c[nH]c3ccccc23)C(=O)C(CC=C(C)C)=C(c2c[nH]c3ccccc23)C1=O",
    "cell viability": "13.7 ± 3.2 % of control"
  }
]

----------
We begin with a simple list: items and their reported cell viability.
Test system: H9c2 cardiomyocytes
Test: Cell viability assay (MTT)
Format: cell-based, rat
Details: H9c2, 24 h, 10.0 µM

[
  {
    "compound": "Cc1c(C)c(O)c2c(c1C)C(C)(O)OC2=O (stereo not drawn) [Compound 3, sclerolide]",
    "cell viability": "88.7 ± 4.4 % of control"
  },
  {
    "compound": "C=C(C)C1CCC23C(O)CCC(C)C2(C)CCC(C)C3C1c1c[nH]c2ccccc12 (stereo not drawn) [Compound 5, 10,23-dihydro-24,25-dehydroaflavinine]",
    "cell viability": "50.5 ± 1.8 % of control"
  },
  {
    "compound": "COc1c(OC)c(-c2c[nH]c3ccc(O)cc23)c(OC)c(OC)c1-c1c[nH]c2ccccc12 [Compound 8, petromurin C]",
    "cell viability": "95.9 ± 2.3 % of control"
  },
  {
    "compound": "Cc1c(C)c(O)c2c(c1C)C(C)C(=O)OC2=O (stereo not drawn) [Compound 4, sclerin]",
    "cell viability": "101.9 ± 6.1 % of control"
  },
  {
    "compound": "COC1=C(c2c[nH]c3ccccc23)C(=O)C(CC=C(C)C)=C(c2c[nH]c3ccccc23)C1=O [Compound 6, kumbicin D]",
    "cell viability": "92.9 ± 6.1 % of control"
  },
  {
    "compound": "COc1c(OC)c(-c2c[nH]c3ccccc23)c(OC)c(OC)c1-c1c[nH]c2ccccc12 [Compound 7, asterriquinol D dimethyl ether]",
    "cell viability": "76.9 ± 2.8 % of control"
  }
]

----------
System: HaCaT keratinocytes
Assay: Cell viability assay (MTT)
Assay type: cell-based, human
Settings: 24 h, 10.0 µM
measurement.label: cell viability

[
  {
    "compound": "COc1c(OC)c(-c2c[nH]c3ccc(O)cc23)c(OC)c(OC)c1-c1c[nH]c2ccccc12 [Compound 8, petromurin C]",
    "measurement.label": "cell viability",
    "val": "93.1 ± 6.9 % of control"
  },
  {
    "compound": "Cc1c(C)c(O)c2c(c1C)C(C)C(=O)OC2=O (stereo not drawn) [Compound 4, sclerin]",
    "measurement.label": "cell viability",
    "val": "94.7 ± 5.0 % of control"
  },
  {
    "compound": "Cc1c(C)c(O)c2c(c1C)C(C)(O)OC2=O (stereo not drawn) [Compound 3, sclerolide]",
    "measurement.label": "cell viability",
    "val": "100.2 ± 3.0 % of control"
  },
  {
    "compound": "COc1c(OC)c(-c2c[nH]c3ccccc23)c(OC)c(OC)c1-c1c[nH]c2ccccc12 [Compound 7, asterriquinol D dimethyl ether]",
    "measurement.label": "cell viability",
    "val": "85.6 ± 7.6 % of control"
  },
  {
    "compound": "C=C(C)C1CCC23C(O)CCC(C)C2(C)CCC(C)C3C1c1c[nH]c2ccccc12 (stereo not drawn) [Compound 5, 10,23-dihydro-24,25-dehydroaflavinine]",
    "measurement.label": "cell viability",
    "val": "88.3 ± 8.6 % of control"
  },
  {
    "compound": "COC1=C(c2c[nH]c3ccccc23)C(=O)C(CC=C(C)C)=C(c2c[nH]c3ccccc23)C1=O [Compound 6, kumbicin D]",
    "measurement.label": "cell viability",
    "val": "98.6 ± 3.5 % of control"
  }
]

----------
Tested on: MDA-MB-231 breast cancer cells
Experiment: Cell viability assay (MTT)
Type: cell-based, human
Details: MDA-MB-231, 24 h, 1.0 µM
measurement.label: cell viability

[
  {
    "compound": "COc1c(OC)c(-c2c[nH]c3ccccc23)c(OC)c(OC)c1-c1c[nH]c2ccccc12",
    "val": "102.7 ± 1.6 % of control"
  },
  {
    "compound": "C=C(C)C1CCC23C(O)CCC(C)C2(C)CCC(C)C3C1c1c[nH]c2ccccc12 (stereo not drawn) [Compound 5, 10,23-dihydro-24,25-dehydroaflavinine]",
    "val": "96.3 ± 7.5 % of control"
  },
  {
    "compound": "COC1=C(c2c[nH]c3ccccc23)C(=O)C(CC=C(C)C)=C(c2c[nH]c3ccccc23)C1=O",
    "val": "93.6 ± 4.8 % of control"
  },
  {
    "compound": "Cc1c(C)c(O)c2c(c1C)C(C)C(=O)OC2=O (stereo not drawn)",
    "val": "94.8 ± 4.2 % of control"
  },
  {
    "compound": "Cc1c(C)c(O)c2c(c1C)C(C)(O)OC2=O (stereo not drawn) [Compound 3, sclerolide]",
    "val": "99.8 ± 1.3 % of control"
  },
  {
    "compound": "COc1c(OC)c(-c2c[nH]c3ccc(O)cc23)c(OC)c(OC)c1-c1c[nH]c2ccccc12",
    "val": "89.4 ± 2.4 % of control"
  }
]

----------
System: MCF-10A breast epithelial cells
Assay: Cell viability assay (MTT)
Assay type: cell-based, human
Conditions: MCF10A, 48 h, 1.0 µM
measurement.label: cell viability

[
  {
    "compound": "C=C(C)C1CCC23C(O)CCC(C)C2(C)CCC(C)C3C1c1c[nH]c2ccccc12 (stereo not drawn) [Compound 5, 10,23-dihydro-24,25-dehydroaflavinine]",
    "measurement.label": "cell viability",
    "val": "92.0 ± 0.9 % of control"
  },
  {
    "compound": "COc1c(OC)c(-c2c[nH]c3ccccc23)c(OC)c(OC)c1-c1c[nH]c2ccccc12",
    "measurement.label": "cell viability",
    "val": "97.7 ± 1.4 % of control"
  },
  {
    "compound": "COC1=C(c2c[nH]c3ccccc23)C(=O)C(CC=C(C)C)=C(c2c[nH]c3ccccc23)C1=O",
    "measurement.label": "cell viability",
    "val": "98.4 ± 4.5 % of control"
  },
  {
    "compound": "Cc1c(C)c(O)c2c(c1C)C(C)C(=O)OC2=O (stereo not drawn)",
    "measurement.label": "cell viability",
    "val": "98.0 ± 4.0 % of control"
  },
  {
    "compound": "Cc1c(C)c(O)c2c(c1C)C(C)(O)OC2=O (stereo not drawn) [Compound 3, sclerolide]",
    "measurement.label": "cell viability",
    "val": "101.6 ± 5.1 % of control"
  },
  {
    "compound": "COc1c(OC)c(-c2c[nH]c3ccc(O)cc23)c(OC)c(OC)c1-c1c[nH]c2ccccc12",
    "measurement.label": "cell viability",
    "val": "95.3 ± 3.4 % of control"
  }
]

----------
System: MCF-10A breast epithelial cells
Assay: Cell viability assay (MTT)
Format: cell-based, human
Settings: MCF10A, 24 h, 10.0 µM

[
  {
    "molecule": "Cc1c(C)c(O)c2c(c1C)C(C)C(=O)OC2=O (stereo not drawn) [Compound 4, sclerin]",
    "cell viability": "88.6 ± 5.2 % of control"
  },
  {
    "molecule": "COc1c(OC)c(-c2c[nH]c3ccc(O)cc23)c(OC)c(OC)c1-c1c[nH]c2ccccc12 [Compound 8, petromurin C]",
    "cell viability": "81.4 ± 1.0 % of control"
  },
  {
    "molecule": "COc1c(OC)c(-c2c[nH]c3ccccc23)c(OC)c(OC)c1-c1c[nH]c2ccccc12 [Compound 7, asterriquinol D dimethyl ether]",
    "cell viability": "100.2 ± 3.8 % of control"
  },
  {
    "molecule": "C=C(C)C1CCC23C(O)CCC(C)C2(C)CCC(C)C3C1c1c[nH]c2ccccc12 (stereo not drawn) [Compound 5, 10,23-dihydro-24,25-dehydroaflavinine]",
    "cell viability": "95.4 ± 2.3 % of control"
  },
  {
    "molecule": "Cc1c(C)c(O)c2c(c1C)C(C)(O)OC2=O (stereo not drawn) [Compound 3, sclerolide]",
    "cell viability": "92.2 ± 3.5 % of control"
  },
  {
    "molecule": "COC1=C(c2c[nH]c3ccccc23)C(=O)C(CC=C(C)C)=C(c2c[nH]c3ccccc23)C1=O [Compound 6, kumbicin D]",
    "cell viability": "92.4 ± 3.6 % of control"
  }
]
